src = paper PMC11083148

Test system: MDA-MB231
Test: MTT assay, antiproliferative activity
Format: cell-based
Reported conditions: Homo sapiens, MDA-MB-231, 48h
Exercise: state measured Mean growth percentage at 10 µM for each of the compounds provided.

Check out these entries, answers already filled in.
COc1ccc(/C=N/NC(=O)c2c(Nc3ccccc3)nn(C)c2N)cc1OC [12b]	91.7%
COC(=O)c1c(NC(=O)c2cc(OC)c(OC)c(OC)c2)n[nH]c1Nc1ccccc1	57%
CCOC(=O)c1c(NC(=O)c2cc(OC)c(OC)c(OC)c2)nn(C)c1Nc1ccccc1	140%
COc1ccc(/C=N/NC(=O)c2c(N)nn(C)c2Nc2ccccc2)cc1OCc1ccccc1 [11d]	98.6%

Turning to the following compound.
Hello, please tell me recorded Mean growth percentage at 10 µM for this one: COc1ccc(/C=N/NC(=O)c2c(Nc3ccccc3)nn(C)c2N)cc1OCc1ccccc1 [12d] 94.1%
